Test: In vitro rat microsomal stability assay
Assay type: in vitro ADME, rat (Sprague-Dawley)
Conditions: Sprague-Dawley, rat, microsomes, 0.5 h, 0.5 μM, pH 7.4
Param label: returns class 1 when RAT MICROSOMAL STABILITY (% REMAINING AFTER 30 MINUTES) < 10%, returns class 0 otherwise, including exact equality.

OC1CC(c2ccnc(C(F)(F)F)c2)(C(O)c2ccccn2)C1 (stereo not drawn) [Example 305]	class 0
N[C@@H]1CCC[C@@H]1[C@@H](O)C1(c2ccc(OC(F)(F)F)cc2)CCC1	class 0
OC(c1ccccn1)C1(c2ccccc2OC(F)(F)F)CCCO1 (single isomer, unassigned) [Example 96]	class 1
Cc1ccc(C2(C(O)c3ccccn3)CCC2)cc1 (stereo not drawn)	class 1
OC(c1ccccn1)C1(C2=CCC(F)(F)CC2)CCC1 (stereo not drawn)	class 1

Q. Does `O=C1CC(c2cncc(C(F)(F)F)c2)([C@H](O)c2ccccn2)C1` have RAT MICROSOMAL STABILITY (% REMAINING AFTER 30 MINUTES) strictly under 10%?
A. class 0
